Molecular target: T1, Nluc-IL23R fusion protein (human, UniProt Q5VWK5 22-629)
T1 construct: range 22-629; expressed with a secretion signal in HEK293 cells; used as crude membrane preparation; also called hIL-23R; human IL-23R; not shown: Nanoluc protein from the expression plasmid N1371 (Promega), N-terminal of IL-23R
T1 sequence (looked up): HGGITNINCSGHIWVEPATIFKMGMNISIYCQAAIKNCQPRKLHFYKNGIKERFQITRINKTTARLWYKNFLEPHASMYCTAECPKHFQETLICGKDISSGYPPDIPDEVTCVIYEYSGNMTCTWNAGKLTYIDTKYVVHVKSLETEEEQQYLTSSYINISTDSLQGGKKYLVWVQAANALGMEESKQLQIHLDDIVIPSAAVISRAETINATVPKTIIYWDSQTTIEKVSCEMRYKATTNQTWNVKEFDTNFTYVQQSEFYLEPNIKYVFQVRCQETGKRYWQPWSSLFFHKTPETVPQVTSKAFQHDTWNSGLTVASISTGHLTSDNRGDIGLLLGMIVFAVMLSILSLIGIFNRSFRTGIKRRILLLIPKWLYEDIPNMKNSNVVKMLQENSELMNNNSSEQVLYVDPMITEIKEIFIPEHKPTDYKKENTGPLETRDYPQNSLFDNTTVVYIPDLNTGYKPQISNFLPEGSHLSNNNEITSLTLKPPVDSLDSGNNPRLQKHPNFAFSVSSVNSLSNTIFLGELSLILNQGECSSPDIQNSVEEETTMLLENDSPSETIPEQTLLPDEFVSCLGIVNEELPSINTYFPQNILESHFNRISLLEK
Assay: BRET competition vs TAMRA-labelled peptide, Nluc-IL23R membranes
*1 amine or outer side, *2 acyl side, *3 side chain or, on linkers, in order; H or OH if unused. Bridges are numbered along the chain shown (N, C = ends). Primed or numbered codes have the meaning given here. [ ]: non-standard residue; d: D form. 4‑Aminomethyl‑phenylacetyl = 4-aminomethyl-phenylacetyl unit, its amine closes the lactam, O=C(Cc1ccc(CN[*:1])cc1)[*:2]; Q(pyrrolidin)(3) = Gln whose side-chain amide N is in a pyrrolidine ring, O=C(CC[C@H](N[*:1])C(=O)[*:2])N1CCCC1; 2Nal = N[C@@H](Cc1ccc2ccccc2c1)C(=O)O; AEF = NCCOc1ccc(C[C@H](N)C(=O)O)cc1; 3Pal = N[C@@H](Cc1cccnc1)C(=O)O; αMeL = CC(C)C[C@](C)(N)C(=O)O; NMeS = CN[C@@H](CO)C(=O)O; Dab = NCC[C@H](N)C(=O)O; βAla = NCCC(=O)O; Sar = CNCC(=O)O
I'd appreciate it if you could supply % displacement (hIL-23R binding) values for the items below.
Give bare numbers, in %.

Please review the entries below; each comes with its answer.
[
  {
    "BINDER": "[4‑Aminomethyl‑phenylacetyl]SEW[Q(pyrrolidin)(3)][Dab][AEF][2Nal][αMeL]E[Dab][3Pal]-NHMe (lactam N-10, 3-6) [Compound 27]",
    "% displacement (hIL-23R binding) / %": 97
  },
  {
    "BINDER": "[4‑Aminomethyl‑phenylacetyl]SEW[Q(2Me)][Dab][AEF][2Nal][αMeL]E[Dab][3Pal]-NHMe (lactam N-10, 3-6) [Compound 30]",
    "% displacement (hIL-23R binding) / %": 104
  }
]

Hello, I would appreciate it if you could give % displacement (hIL-23R binding) for each entry below.
1. [4‑Aminomethyl‑phenylacetyl][NMeS]CWQC[AEF][2Nal][αMeL]E[Dab]-NH2 (lactam N-10; bridge 3-6; not fully specified (bridges); printed as [4-Aminomethyl-phenylacetyl](1c)*[N-Me-Ser]C(2a)WQC(2a)[Y(2-aminoethoxy)][2-Nal][2-Me-Leu]E(1c)[Dab]-[NH2]) [Ref 141]
2. [βAla][3Pal]SCWQC[AEF][2Nal][αMeL]E[dR]-NH2 (lactam N-11; linker 4-7 via 1,3‑dithio‑propan‑2‑one) [Compound 1]
3. [4‑Aminomethyl‑phenylacetyl]AEWQ[Dab][AEF][2Nal][αMeL]ES[3Pal]-NHMe (lactam N-10, 3-6; SMILES CNC(=O)[C@H](Cc1cccnc1)NC(=O)[C@H](CO)NC(=O)[C@@H]1CCC(=O)NCc2ccc(cc2)CC(=O)N[C@@H](C)C(=O)N[C@H]2CCC(=O)NCC[C@H](NC(=O)[C@H](CCC(N)=O)NC(=O)[C@H](Cc3c[nH]c4ccccc34)NC2=O)C(=O)N[C@@H](Cc2ccc(OCCN)cc2)C(=O)N[C@@H](Cc2ccc3ccccc3c2)C(=O)N[C@@](C)(CC(C)C)C(=O)N1) [Compound 40]
4. [4‑Aminomethyl‑phenylacetyl]FEWQ[Dab][AEF][2Nal][αMeL]E[Dab][3Pal]-NHMe (lactam N-10, 3-6; SMILES CNC(=O)[C@H](Cc1cccnc1)NC(=O)[C@H](CCN)NC(=O)[C@@H]1CCC(=O)NCc2ccc(cc2)CC(=O)N[C@@H](Cc2ccccc2)C(=O)N[C@H]2CCC(=O)NCC[C@H](NC(=O)[C@H](CCC(N)=O)NC(=O)[C@H](Cc3c[nH]c4ccccc34)NC2=O)C(=O)N[C@@H](Cc2ccc(OCCN)cc2)C(=O)N[C@@H](Cc2ccc3ccccc3c2)C(=O)N[C@@](C)(CC(C)C)C(=O)N1) [Compound 21]
5. [4‑Aminomethyl‑phenylacetyl]SEWQ[Dab][AEF][2Nal][αMeL]E[Dab][3Pal][Sar]-NH2 (lactam N-10, 3-6; SMILES CC(C)C[C@]1(C)NC(=O)[C@H](Cc2ccc3ccccc3c2)NC(=O)[C@H](Cc2ccc(OCCN)cc2)NC(=O)[C@@H]2CCNC(=O)CC[C@H](NC(=O)[C@H](CO)NC(=O)Cc3ccc(cc3)CNC(=O)CC[C@@H](C(=O)N[C@@H](CCN)C(=O)N[C@@H](Cc3cccnc3)C(=O)N(C)CC(N)=O)NC1=O)C(=O)N[C@@H](Cc1c[nH]c3ccccc13)C(=O)N[C@@H](CCC(N)=O)C(=O)N2) [Compound 9]

1. 102
2. 105
3. 100
4. 95
5. 100
